STUDY_TARGET: human active recombinant p38α-6His tagged (Homo sapiens, UniProt Q16539)
Construct: 6His
Sequence (Q16539 whole entry): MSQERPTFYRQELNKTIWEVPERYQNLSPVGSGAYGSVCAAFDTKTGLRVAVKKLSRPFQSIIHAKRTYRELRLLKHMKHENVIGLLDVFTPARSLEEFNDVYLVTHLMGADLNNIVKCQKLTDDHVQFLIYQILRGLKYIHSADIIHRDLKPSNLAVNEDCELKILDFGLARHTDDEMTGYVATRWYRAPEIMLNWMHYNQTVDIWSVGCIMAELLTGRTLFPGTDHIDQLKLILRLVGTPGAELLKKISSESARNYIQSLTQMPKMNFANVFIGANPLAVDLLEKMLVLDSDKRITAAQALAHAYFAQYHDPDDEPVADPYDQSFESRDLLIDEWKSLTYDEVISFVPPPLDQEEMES
ASSAY_EXPLANATION: p38 Alpha Enzyme Assay (AlphaScreen, biotinylated-ATF2 substrate)
Type: biochemical
ASSAY_CONDITIONS: pre-incubated 4 hours at 37° C., reaction initiated with ATP; 0.5 nM enzyme; read-out: p38 pIC50 (converted)
METRIC_NAME: IC50 (nM)

Use the examples below as a reference point.
>  <STRUCTURE_SMILES>
Cc1ccc(C(=O)NC2CC2)cc1-c1ccc2c(=O)n(Cc3ccc(C4CCNCC4)cc3)cc(C)c2c1

>  <METRIC_NAME>
IC50

>  <SCALE_UNIT>
nM

>  <VALUE_OBSERVED>
0.251

$$$$
>  <STRUCTURE_SMILES>
Cc1ccc(C(=O)NC2CC2)cc1-c1ccc2c(=O)n(CC3CC3)cc(C(=O)N3CCN(CCN(C)C)CC3)c2c1

>  <METRIC_NAME>
IC50

>  <SCALE_UNIT>
nM

>  <VALUE_OBSERVED>
25.1

$$$$
>  <STRUCTURE_SMILES>
Cc1ccc(C(=O)NC2CC2)cc1-c1ccc2c(=O)n(CC3CCNCC3)ccc2c1

>  <METRIC_NAME>
IC50

>  <SCALE_UNIT>
nM

>  <VALUE_OBSERVED>
63.1

$$$$

(P) Cc1c(F)cc(C(=O)NC2CC2)cc1-c1ccc2c(=O)n(CC3CC3)cc(CN3CCN[C@@H](C)C3)c2c1
(Q) Cc1ccc(C(=O)NC2CC2)cc1-c1ccc2c(=O)n(Cc3ccccc3)cc(C(=O)NCCCN(C)C)c2c1
Exercise: Which has the smaller recorded IC50, P or Q ? Select an item and report its label.
Solution: P

(A) Cc1ccc(C(=O)NC2CC2)cc1-c1ccc2c(=O)n(Cc3ccc(C(=O)NS(C)(=O)=O)cc3)cc(CN3CCCN(C)CC3)c2c1
(B) Cc1ccc(C(=O)NC2CC2)cc1-c1ccc2c(=O)[nH]ccc2c1
(C) Cc1ccc(C(=O)NC2CC2)cc1-c1ccc2c(=O)n(Cc3ccc(N4CCN(C)CC4)cc3)ccc2c1
Exercise: Put the compounds in ascending order of IC50. # answer = labels listed in requested order
Solution: A, C, B
(A: 0.251 nM, C: 1.26 nM, B: 25.1 nM)

(1) Cc1c(F)cc(C(=O)NC2CC2)cc1-c1ccc2c(=O)n(CC3CC3)cc(CN3CCN[C@@H](CCO)C3)c2c1
(2) Cc1ccc(C(=O)NC2CC2)cc1-c1ccc2c(=O)n(Cc3ccc(OCCCN(C)C)nc3)ccc2c1
(3) Cc1ccc(C(=O)NC2CC2)cc1-c1ccc2c(=O)n(Cc3ccc(OCCN(C)C)nc3)ccc2c1
(4) Cc1c(F)cc(C(=O)NC2CC2)cc1-c1ccc2c(=O)n(CC3CC3)cc(CN3CCN[C@H](CO)C3)c2c1
Exercise: Put the compounds in ascending order of IC50. # answer = labels listed in requested order
Solution: 4, 1, 3, 2
(4: 0.0501 nM, 1: 0.158 nM, 3: 1 nM, 2: 1.58 nM)

(P) Cc1c(F)cc(C(=O)NC2CC2)cc1-c1ccc2c(=O)n(CC3CC3)cc(CN3CCN(CCO)CC3)c2c1
(Q) Cc1ccc(C(=O)NC2CC2)cc1-c1ccc2c(=O)n(Cc3cccc(OCCCN(C)C)c3)cc(C)c2c1
Exercise: Which has the smaller recorded IC50, P or Q ? Select an item and report its label.
Solution: P
(P: 0.158 nM, Q: 2 nM)
